In this section we review reported glycan array binding signal (z-score) values for a set of binders.
Study target: GlcNAc(a1-4)Gal(b1-4)GlcNAc(b1-3)Gal(b1-4)GlcNAc(b1-3)Gal(b1-4)GlcNAc
Protocol notes: glycan array binding signal (z-score within array); higher = stronger binding
Experimental context: glycan notation: IUPAC condensed, linker removed
Many of the other results were omitted from the sample, so the strongest signals are more common in it than they were.
API note: the answer field is a bare number with no unit suffix.

Worked set:
Binder	glycan array binding signal (z-score)
MRCL (Homo sapiens), NP_872425.1 (protein) ATKVHFPFHTCDLRIDGDCFMVSSEADTYYRARMKCQRKGGVLAQIKSQKVQDILAFYLGRLETTNEVTDSDFETRNFWIGLTYKTAKDSFRWATGEHQAFTSFAFGQPDNHGLVWLSAAMGFGNCVELQASAAFNWNNQRCKTRNRYICQFAQEHISRWGPGS	1.88
EULS2 M3 (Oryza sativa) (protein) MVYCRANPNYAMTARNGAVVLAPANPKDEYQHWIKDMRWSTSIKDEEGYPAFALVNKATGQAIKHSLGQSHPVRLVPYNPEVMDESVLWTESRDVGNGFRCIRMVNNIYLNFDAFHGDKYHGGVRDGTDIVLWKLCEGDSLRWKIQPYYILEQKLISEEDLNSAVDHHHHHH	-0.139

Next:
Using the record for Jacalin (Artocarpus integrifolia) (protein) MAYSSLLSLSVLALLFSISSADTRKWFLANGINQNPIGIIEAAVGVSEDLLNLNGMEAKNDEQSGISQTVIVGPWGAKVSTSSNGKAFDDGAFTGIREINLSYNKETAIGDFQVVYDLNGSPYVGQNHKSFITGFTPVKISLDFPSEYIMEVSGYTGNVSGYVVVRSLTFKTNKKTYGPYGVTSGTPFNLPIENGLIVGFKGSIGYWLDYFSMYLSL , report its glycan array binding signal (z-score).
2.63

Reference source: the supplement of paper PMC8728848
